Just for reference, patent US20090137549A1 is where these values come from.

Counter-ions that a name gives are not always drawn.
Quantity: IC50

Form field - read-out: IC50; system: PDE1A (Homo sapiens, UniProt P54750); submitted item: O=c1[nH]c(C2CN(c3ccccc3)C2)nc2c1cnn2C1CCCCC1 [Example 168]
0.101 to 0.5 µM

Form field - read-out: IC50; system: PDE1A (Homo sapiens, UniProt P54750); submitted item: CC(C)(C)n1ncc2c(=O)[nH]c(C3CN(c4nccs4)C3)nc21 [Example 141]
0.501 to 1 µM

Form field - read-out: IC50; system: PDE1A (Homo sapiens, UniProt P54750); submitted item: Cc1nn(C2CCCCC2)c2nc(C3CCCN(S(=O)(=O)c4cn(C)cn4)C3)[nH]c(=O)c12 (centres unmarked) [Example 98]
1 to 1.5 µM

Form field - read-out: IC50; system: PDE1A (Homo sapiens, UniProt P54750); submitted item: CN1CCN(Cc2cnc(N3CC(c4nc5c(cnn5C5CCCCC5)c(=O)[nH]4)C3)s2)CC1 [Example 137]
0.101 to 0.5 µM

Form field - read-out: IC50; system: PDE1A (Homo sapiens, UniProt P54750); submitted item: CC(C)(C)n1ncc2c(=O)[nH]c(C3CN(CC(=O)c4ccccc4)C3)nc21 [Example 174]
0.101 to 0.5 µM

Form field - read-out: IC50; system: PDE1A (Homo sapiens, UniProt P54750); submitted item: O=C(NC1CCCNC1)N1CC(c2nc3c(cnn3C3CCCCC3)c(=O)[nH]2)C1 (centres unmarked) [Example 182, trifluoroacetate]
0.501 to 1 µM

Form field - read-out: IC50; system: PDE1A (Homo sapiens, UniProt P54750); submitted item: CC(C)N1CC(n2ncc3c(=O)[nH]c(C4CN(C(=O)Nc5ccc(F)cc5)C4)nc32)C1 [Example 108]
1 to 1.5 µM

Form field - read-out: IC50; system: PDE1A (Homo sapiens, UniProt P54750); submitted item: O=c1[nH]c(C2CN(c3nc4ccccc4[nH]3)C2)nc2c1cnn2C1CCCCC1 [Example 125]
0.001 to 0.1 µM

Form field - read-out: IC50; system: PDE1A (Homo sapiens, UniProt P54750); submitted item: N#Cc1ccc(N2CC(c3nc4c(cnn4C4CCCCC4)c(=O)[nH]3)C2)cc1 [Example 148]
0.001 to 0.1 µM

Form field - read-out: IC50; system: PDE1A (Homo sapiens, UniProt P54750); submitted item: Cc1nn(C2CCCCC2)c2nc(C3CN(C(=O)N(C)Cc4ccc(F)cc4)C3)[nH]c(=O)c12 [Example 170]
0.101 to 0.5 µM

Form field - read-out: IC50; system: PDE1A (Homo sapiens, UniProt P54750); submitted item: Cc1ccc(NC(=O)N2CC(c3nc4c(cnn4C4CCCCC4)c(=O)[nH]3)C2)cc1C [Example 4]
0.001 to 0.1 µM

Form field - read-out: IC50; system: PDE1A (Homo sapiens, UniProt P54750); submitted item: COc1cccc(S(=O)(=O)N2CCCC(c3nc4c(cnn4C4CCCCC4)c(=O)[nH]3)C2)c1 (centres unmarked) [Example 79]
0.501 to 1 µM

Form field - read-out: IC50; system: PDE1A (Homo sapiens, UniProt P54750); submitted item: O=C(Nc1cccc(Cl)c1)N1CC(c2nc3c(cnn3C3CCCCC3)c(=O)[nH]2)C1 [Example 8]
0.001 to 0.1 µM

Form field - read-out: IC50; system: PDE1A (Homo sapiens, UniProt P54750); submitted item: Cc1nn(C2CCCCC2)c2nc(C3CN(C(=O)NCc4ccc(Cl)c(Cl)c4)C3)[nH]c(=O)c12 [Example 39]
0.001 to 0.1 µM

Form field - read-out: IC50; system: PDE1A (Homo sapiens, UniProt P54750); submitted item: COc1ccc(CNC(=O)N2CC(c3nc4c(c(C)nn4C4CCCCC4)c(=O)[nH]3)C2)cc1 [Example 28]
0.001 to 0.1 µM

Form field - read-out: IC50; system: PDE1A (Homo sapiens, UniProt P54750); submitted item: CC(C)N1CCCC(NC(=O)N2CC(c3nc4c(cnn4C4CCCCC4)c(=O)[nH]3)C2)C1 (centres unmarked) [Example 183]
0.101 to 0.5 µM

Form field - read-out: IC50; system: PDE1A (Homo sapiens, UniProt P54750); submitted item: Cc1nn(C2CCCCC2)c2nc(C3CN(C(=O)Nc4ccc(F)cc4)C3)[nH]c(=O)c12 [Example 21]
0.001 to 0.1 µM
